Origin of the recorded values: patent US20240254089A1

# target or test system: human MRGPR X4 (Homo sapiens, UniProt Q96LA9)
# Construct: expressed in transfected cells
# Sequence (Q96LA9 whole entry): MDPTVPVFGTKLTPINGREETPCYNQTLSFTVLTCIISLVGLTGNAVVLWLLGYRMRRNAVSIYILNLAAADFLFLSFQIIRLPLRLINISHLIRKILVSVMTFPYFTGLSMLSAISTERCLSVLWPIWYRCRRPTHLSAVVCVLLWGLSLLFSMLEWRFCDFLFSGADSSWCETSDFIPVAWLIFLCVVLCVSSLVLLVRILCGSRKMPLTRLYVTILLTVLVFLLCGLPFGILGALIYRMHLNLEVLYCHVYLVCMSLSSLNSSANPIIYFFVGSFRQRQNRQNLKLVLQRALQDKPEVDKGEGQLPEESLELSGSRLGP
# test protocol: MRGPR X4 antagonist activity, IP-One Gq HTRF assay in stably transfected HEK cells
# Format: cell-based
value kind: IC50

Kindly indicate its recorded IC50. Item: `COc1cccc(CCNC(=O)c2nn(Cc3ccc(Cl)cc3)c3ccccc23)n1`
501 to 1000 nM

Quickly give me recorded IC50 for `COc1ccc2ccccc2c1Cn1nc(C(=O)NCCc2nnc3ccccn23)c2ccccc21`
1000 to 2500 nM

State, in one line, measured IC50 of `Cc1c(Cn2nc(C(=O)NCCc3nnc4ccccn34)c3ccccc32)oc2ccccc12`
< 100 nM

Please list IC50 recorded for the compound `O=C(NCCOc1ccccc1)c1nn(Cc2ccc(Cl)cc2)c2ccccc12`
1000 to 2500 nM

Name the recorded IC50 of the item `O=C(NCCc1nnc2ccccn12)c1nn(Cc2ccc(Cl)cc2)c2ccc(I)cc12` in your answer.
< 100 nM

***
Determine its reported IC50: `Cc1noc(CCNC(=O)c2nn(Cc3ccc(Cl)cc3)c3ccccc23)n1`
1000 to 2500 nM

Annotate the compound `O=C(NCCc1ccncc1)c1cn(Cc2ccc(Cl)cc2)c2ccccc12` with its measured IC50.
100 to 500 nM

Look up and state reported IC50 for `O=C(NCCc1cccnc1)c1cn(Cc2ccc(OC(F)(F)F)cc2)c2ccccc12`
100 to 500 nM

---

Below, each entry is listed with its recorded IC50.
# target or test system: human MRGPR X4 (Homo sapiens, UniProt Q96LA9)
# Construct: expressed in transfected cells
# test protocol: MRGPR X4 antagonist activity, IP-One Gq HTRF assay in stably transfected HEK cells
# Assay type: cell-based

Here's what some known entries look like.
Indicate the recorded IC50 value for this compound: `Cc1ccc(Cn2nc(C(=O)NCCc3cccnc3)c3c(C#N)cccc32)cc1`
100 to 500 nM

Provide only the value of recorded IC50 for `O=C(NCCc1nc2ccccc2[nH]1)c1nn(Cc2ccc(Cl)cc2)c2ccccc12`
< 100 nM

Next:
Read off the recorded IC50 for `O=C(NCCc1nnc2ccccn12)c1nn(Cc2nc3ccc(C(F)(F)F)cc3[nH]2)c2ccccc12`
501 to 1000 nM

Determine from records and report IC50 for `O=C(NCCc1nnc2ccccn12)c1nn(Cc2ccc(F)cc2)c2ccccc12`
100 to 500 nM

Return reported IC50. Input compound: `COc1ccc(CCNC(=O)c2nn(Cc3ccc(Cl)cc3)c3ccccc23)cc1OC`
501 to 1000 nM

Supply reported IC50 belonging to this compound: `Cc1ccc(Cn2nc(C(=O)NCCc3ccco3)c3ccccc32)cc1`
1000 to 2500 nM

Find the measured IC50 of `O=C(NCCc1cccnc1)c1nn(Cc2cccc(Cl)c2)c2ccccc12` and report it.
501 to 1000 nM

Indicate the recorded IC50 value for this compound: `Cc1ccc(Cn2nc(C(=O)NCCc3nnc4ccccn34)c3ccccc32)cc1`
< 100 nM

Please report the measured IC50 for `O=C(NCCN1CCCCC1=O)c1nn(Cc2ccc(Cl)cc2)c2ccccc12`
100 to 500 nM

Please look at this compound and report its IC50: `O=C(NCCCc1ccc(Cl)c(F)c1)c1cn(Cc2ccc(Cl)cc2)c2ccccc12`
1000 to 2500 nM

Determine from records and report IC50 for `O=C(NCCc1nnc2ccccn12)c1nn(Cc2ccc(Cl)cc2)c2cccc(Cl)c12`
501 to 1000 nM
